Test system: Caenorhabditis elegans N2 infected with Nematocida parisii ERTm1
Experiment: progeny production relative to DMSO uninfected control; higher = more progeny despite microsporidia infection (inhibition of infection with low host toxicity)
Conditions: infection time 6 days; 100 µM
Entries and their measured progeny production follow.
experimental_endpoint: progeny production

> print(dat)
                                    compound                               measured.on  experimental.endpoint  observed.value
 1  COc1ccccc1NC(=O)c1ccccc1Sc1ccc([N+](=O)[O-])cc1  Caenorhabditis elegans N2 infected with Nematocida parisii ERTm1     progeny production           14.7%
 2   CN(C)CC(=O)Nc1ccc2[nH]c(=O)c3ccccc3c2c1  Caenorhabditis elegans N2 infected with Nematocida parisii ERTm1     progeny production           14.1%
 3  CCOc1noc2cc(OCCC3CCN(c4ccc(C)nn4)CC3)ccc12  Caenorhabditis elegans N2 infected with Nematocida parisii ERTm1     progeny production           17.1%
 4  CC1CN(c2ncnc3c2c(-c2ccccc2)cn3-c2ccc(F)cc2)CC(C)O1 (stereo not given)  Caenorhabditis elegans N2 infected with Nematocida parisii ERTm1     progeny production           13.4%
 5                    CCc1ccccc1OCCN1CCCCCC1  Caenorhabditis elegans N2 infected with Nematocida parisii ERTm1     progeny production           20.2%
 6  O=C(CCc1ccc2c(c1)OCO2)NCc1ccc(-c2ccccc2F)cc1  Caenorhabditis elegans N2 infected with Nematocida parisii ERTm1     progeny production             14%
 7  C[C@@H](O)[C@H](N)C(=O)NS(=O)(=O)c1cccc(-c2ccc3[nH]ncc3c2)c1  Caenorhabditis elegans N2 infected with Nematocida parisii ERTm1     progeny production           20.2%
 8   O=C(Nc1ccccc1C(=O)O)c1cccc(Oc2ccccc2)c1  Caenorhabditis elegans N2 infected with Nematocida parisii ERTm1     progeny production           16.2%
 9  CCc1nc2ccc(Cl)cn2c1C(=O)NCc1ccc(N2CCC(c3ccc(OC(F)(F)F)cc3)CC2)cc1  Caenorhabditis elegans N2 infected with Nematocida parisii ERTm1     progeny production           6.24%
10  CCc1cc(Nc2cc(=O)n(CCN3CCN(C(=O)c4ccccc4)CC3)c(=O)[nH]2)ccc1C  Caenorhabditis elegans N2 infected with Nematocida parisii ERTm1     progeny production             21%

----------
Entries and their measured progeny production follow.
Test system: Caenorhabditis elegans N2 infected with Nematocida parisii ERTm1
Assay: progeny production relative to DMSO uninfected control; higher = more progeny despite microsporidia infection (inhibition of infection with low host toxicity)
Settings: infection time 6 days; 100 µM

molecule	progeny production (%)
COC1CC2CCC(C)C(O)(O2)C(=O)C(=O)N2CCCCC2C(=O)OC(C(C)CC2CCC(OCCO)C(OC)C2)CC(=O)C(C)/C=C(\C)C(O)C(OC)C(=O)C(C)CC(C)/C=C/C=C/C=C/1C (stereo unspecified)	9.56
CC[C@@H]1C(=O)OC[C@@H]1Cc1cncn1C	11.8
O=C(CCCC(F)(F)F)N1CCC(c2nc(-c3nccs3)no2)CC1	8.6
CO/N=C(\C(=O)N[C@@H]1C(=O)N2C(C(=O)OCOC(=O)C(C)(C)C)=C(/C=C\c3scnc3C)CS[C@H]12)c1csc(N)n1	13.1
Cc1nc(N(C)C(=O)Cc2ccc(-c3ccccn3)cc2)sc1S(N)(=O)=O	12.9
CN1CCN(Cc2ccc(-c3cnc4[nH]cc(-c5ccc6[nH]ccc6c5)c4c3)cc2)CC1	14.6
O=C1NC(=S)N/C1=C\c1cc(Br)cc(Br)c1O	10.2
CCOC(=O)/C=C/[C@H](C[C@@H]1CCNC1=O)NC(=O)[C@H](CC)n1cccc(NC(=O)c2cc(C)on2)c1=O	8.98
CC(C)(C)OC(=O)NCc1ccc(C(=O)N[C@H]2CCOC2=O)cc1	24.3
CC(C)/N=c1\cc2n(-c3ccc(Cl)cc3)c3ccccc3nc-2cc1Nc1ccc(Cl)cc1	9.5
CN(C)CCNC(=O)c1cccc2cccnc12	14.7
CCNC(=O)Nc1cc2c(-c3ccnc(C)c3)ccc(CNC(=O)OC)c2cn1	17.2
O=C1C=C(c2ccccc2)S(=O)(=O)c2ccccc21	38
CC(C)c1cc2c(cc1S(=O)(=O)O)[C@@]1(C)CCC[C@@](C)(C(=O)O)[C@@H]1CC2	4.55
O=[N+]([O-])c1ccc2c(CCc3c[nH]c4ccccc34)c[nH]c2c1	35.7
Nc1nc(N)c2c(Sc3ccccc3)cccc2n1	16.4
CCc1cc(CCCOc2c(C)cc(-c3noc(C(F)(F)F)n3)cc2C)on1	12.5
CCCC(=O)OCCc1ccccc1	11.9
Nc1nc(=O)[nH]cc1F	23.7
CC[C@H](CO)Nc1nc(NCc2ccccc2)c2ncn(C(C)C)c2n1	13.5
C[C@H]1CC[C@@]2(O)C(C)(C)[C@@H]3CC[C@@]2(C)[C@H]1C3	7.52
